tested on: HOP-92 NSCLC; test: NCI tumour cell line growth inhibition, 48 h
Records here are stratified by TGI; strata: class 1: < 10 µM; class 2: ≥ 10 µM and < 40 µM; class 3: ≥ 40 µM

molecule=Cc1ccc(/C=C2/SC(Nc3nc(-c4csc(NC5=NC(=O)/C(=C\c6ccc(C)cc6)S5)n4)cs3)=NC2=O)cc1 class_name="class 2"
molecule=COC(=O)N1CCc2c(nc(N(C)CCO)[nH]c2=O)C1 class_name="class 3"

Dear colleague, I would appreciate it if you could identify the bin for CCC/C(=N/N=C(N)N)c1ccc(NC(=O)c2cc3cc(OC)ccc3[nH]2)cc1 and reply at your convenience.
class 2

Given Cc1ccc2c(=O)c3cccc(CC(=O)O)c3[nH]c2c1C , name the class its TGI places it in.
class 3
